For each entry below, report its Agonist, % of NDP-MSH maximal response value.
- target_or_test_system: mouse melanocortin-4 receptor (mouse, UniProt P56450 1-332)
- Sequence (P56450 whole entry): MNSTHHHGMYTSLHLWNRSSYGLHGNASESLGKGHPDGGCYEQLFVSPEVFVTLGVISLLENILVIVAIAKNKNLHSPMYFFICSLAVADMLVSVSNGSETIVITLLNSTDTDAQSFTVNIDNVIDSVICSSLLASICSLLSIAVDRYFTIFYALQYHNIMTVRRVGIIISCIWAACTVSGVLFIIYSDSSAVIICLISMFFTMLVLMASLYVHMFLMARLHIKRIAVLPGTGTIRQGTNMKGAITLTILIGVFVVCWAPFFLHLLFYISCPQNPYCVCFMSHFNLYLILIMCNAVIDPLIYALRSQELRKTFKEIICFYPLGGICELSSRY
- assay_name: cell-based or functional assay
Square brackets hold non-standard residues; d marks the D form. Bip = N[C@@H](Cc1ccc(-c2ccccc2)cc1)C(=O)O; dPhe(4-I) = N[C@H](Cc1ccc(I)cc1)C(=O)O; 2Nal = N[C@@H](Cc1ccc2ccccc2c1)C(=O)O; d2Nal = N[C@H](Cc1ccc2ccccc2c1)C(=O)O; Bta = N[C@@H](Cc1csc2ccccc12)C(=O)O; Tic = O=C(O)[C@@H]1Cc2ccccc2CN1
One number for each entry, in % @ 100 µM.

Give the measured Agonist, % of NDP-MSH maximal response of Ac-HR[dPhe(4-I)][Bta]-NH2 [SKY4-48-11, Ac-His-Arg-(pI)DPhe-3Bal-NH2] .
47

Also Ac-[Bta]R[dPhe(4-I)][Bip]-NH2 [SKY4-48-5, Ac-3Bal-Arg-(pI)DPhe-Bip-NH2] ?
35

Also Ac-[d2Nal]R[dPhe(4-I)][d2Nal]-NH2 [SKY4-48-49, Ac-DNal(2')-Arg-(pI)DPhe-DNal(2')-NH2] ?
37

Batch: Agonist, % of NDP-MSH maximal response for all items listed.
1. Ac-RR[dPhe(4-I)][Bip]-NH2 [SKY4-48-2, Ac-Arg-Arg-(pI)DPhe-Bip-NH2]
2. Ac-[Tic]R[dPhe(4-I)][Tic]-NH2 [SKY6-24-1, Ac-Tic-Arg-(pI)DPhe-Tic-NH2]
3. Ac-RR[dPhe(4-I)][Bta]-NH2 [SKY4-48-10, Ac-Arg-Arg-(pI)DPhe-3Bal-NH2]
4. Ac-[Bta]R[dPhe(4-I)][d2Nal]-NH2 [SKY4-48-45, Ac-3Bal-Arg-(pI)DPhe-DNal(2')-NH2]
5. Ac-HR[dPhe(4-I)][d2Nal]-NH2 [SKY4-48-43, Ac-His-Arg-(pI)DPhe-DNal(2')-NH2]
6. Ac-[d2Nal]R[dPhe(4-I)][2Nal]-NH2 [SKY5-146-5, Ac-DNal(2')-Arg-(pI)DPhe-Nal(2')-NH2]
7. Ac-HR[dPhe(4-I)][Bip]-NH2 [SKY4-48-3, Ac-His-Arg-(pI)DPhe-Bip-NH2]
8. Ac-[d2Nal]R[dPhe(4-I)][Bip]-NH2 [SKY5-146-2, Ac-DNal(2')-Arg-(pI)DPhe-Bip-NH2]

1. 32
2. 36
3. 24
4. 38
5. 50
6. 39
7. 43
8. 42

Batch: Agonist, % of NDP-MSH maximal response for all items listed.
1. Ac-[2Nal]R[dPhe(4-I)][Tic]-NH2 [SKY4-48-24, Ac-Nal(2')-Arg-(pI)DPhe-Tic-NH2]
2. Ac-[d2Nal]R[dPhe(4-I)][Bta]-NH2 [SKY4-48-17, Ac-DNal(2')-Arg-(pI)DPhe-3Bal-NH2]
3. Ac-[Tic]R[dPhe(4-I)][d2Nal]-NH2 [SKY4-48-46, Ac-Tic-Arg-(pI)DPhe-DNal(2')-NH2]

1: 33; 2: 45; 3: 33
